# EXPERIMENT_DESCRIPTION: Single ascending dose study NP10679-101, plasma pharmacokinetics
# Format: in vivo, human
# CONDITION_INFO: human, plasma, iv, 5 mg
PROPERTY_MEASURED: AUC(0-inf) (ng·h/mL)
Give the value in ng·h/mL but do not write ng·h/mL after it.

AUC(0-inf) reported for this compound O=C1CCc2cc(OC[C@H](O)CN3CCN(c4ccc(C(F)(F)F)cc4)CC3)ccc2N1 [NP10679] : 553

###

# EXPERIMENT_DESCRIPTION: Single ascending dose study NP10679-101, plasma pharmacokinetics
# Assay type: in vivo, human
# CONDITION_INFO: human, plasma, iv, 15 mg, Vd, area, mean, SAD, single IV infusion 15 mg
PROPERTY_MEASURED: Vd (L)
Unit L implied. Number only.

Just so you know, measured Vd for O=C1CCc2cc(OC[C@H](O)CN3CCN(c4ccc(C(F)(F)F)cc4)CC3)ccc2N1 came out at 346
